- SYSTEM NAME: UniProtKB P05177
- Sequence (P05177 whole entry): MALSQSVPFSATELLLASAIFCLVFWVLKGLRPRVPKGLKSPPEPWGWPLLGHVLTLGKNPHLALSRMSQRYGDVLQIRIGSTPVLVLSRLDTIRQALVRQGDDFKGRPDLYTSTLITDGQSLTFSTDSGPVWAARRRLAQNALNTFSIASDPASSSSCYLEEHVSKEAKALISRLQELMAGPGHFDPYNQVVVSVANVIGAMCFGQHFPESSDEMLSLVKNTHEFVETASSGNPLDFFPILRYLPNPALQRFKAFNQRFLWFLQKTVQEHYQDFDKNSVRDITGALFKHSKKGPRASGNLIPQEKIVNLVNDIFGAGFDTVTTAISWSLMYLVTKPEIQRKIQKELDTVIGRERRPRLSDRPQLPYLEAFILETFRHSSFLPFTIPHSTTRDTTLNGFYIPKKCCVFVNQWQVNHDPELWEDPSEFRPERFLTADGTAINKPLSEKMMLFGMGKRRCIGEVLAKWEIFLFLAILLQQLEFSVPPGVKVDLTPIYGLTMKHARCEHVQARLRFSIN
- PROTOCOL DESCRIPTION: Inhibition of CYP1A2 in human microsomes using phenacetin as substrate at 10 uM after 5 mins
- Assay type: ADME, Microsome
- CONDITION LABEL: probe phenacetin
OBSERVATION TYPE: inhibition at 5 min, 10 µM (%)

{"TEST SMILES": "O=C(C1CCCCC1)N1CCC[C@H](c2nc(-c3ccccc3)no2)C1", "SYSTEM NAME": "UniProtKB P05177", "OBSERVATION TYPE": "inhibition at 5 min, 10 µM", "NUMERIC VALUE": 16}

1: Cc1c(Br)cccc1C(=O)N1CCC[C@H](c2nc(-c3ccccc3)no2)C1
2: Cc1c(Cl)cccc1S(=O)(=O)N1CCC[C@H](C(=O)NC2CCCCC2)C1
Record comparison, field inhibition at 5 min, 10 µM: mark the lower of 1 and 2 . Response format: the label of the selected entry.
1

====

- SYSTEM NAME: 11-beta-hydroxysteroid dehydrogenase 1 (Homo sapiens, UniProt P28845)
- Sequence (P28845 whole entry): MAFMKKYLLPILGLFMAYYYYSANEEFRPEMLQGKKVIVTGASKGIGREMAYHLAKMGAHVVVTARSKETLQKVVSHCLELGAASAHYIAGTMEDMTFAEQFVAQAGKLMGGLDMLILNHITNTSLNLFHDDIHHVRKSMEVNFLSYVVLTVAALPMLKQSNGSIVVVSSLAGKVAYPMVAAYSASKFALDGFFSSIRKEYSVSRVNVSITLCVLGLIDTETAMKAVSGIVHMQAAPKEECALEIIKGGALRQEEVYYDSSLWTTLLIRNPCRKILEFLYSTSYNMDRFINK
- PROTOCOL DESCRIPTION: Inhibition of human 11-beta HSD1 transfected in HEK293 cell microsomes assessed as decrease in [3H]cortisol generation using [3H]cortisone as substrate measured after 60 mins by scintillation proximity assay
pIC50: −log10 of the molar value.
OBSERVATION TYPE: pIC50

# annotated cases, reported pIC50 shown
{"TEST SMILES": "Cc1c(Cl)cccc1S(=O)(=O)N1CCC[C@H](C(=O)NC2CCCCC2)C1", "SYSTEM NAME": "11-beta-hydroxysteroid dehydrogenase 1 (Homo sapiens, UniProt P28845)", "pIC50": 9.10}
{"TEST SMILES": "Cc1c(Br)cccc1C(=O)N1CCC[C@H](c2nc(-c3ccccc3)no2)C1", "SYSTEM NAME": "11-beta-hydroxysteroid dehydrogenase 1 (Homo sapiens, UniProt P28845)", "pIC50": 8.48}
{"TEST SMILES": "Cc1c(Cl)cccc1C(=O)N1CCC[C@H](c2nc(-c3cccc(Br)c3)no2)C1", "SYSTEM NAME": "11-beta-hydroxysteroid dehydrogenase 1 (Homo sapiens, UniProt P28845)", "pIC50": 6.51}
{"TEST SMILES": "O=C(C1CCC1)N1CCC[C@H](c2nc(-c3ccccc3)no2)C1", "SYSTEM NAME": "11-beta-hydroxysteroid dehydrogenase 1 (Homo sapiens, UniProt P28845)", "pIC50": 6.49}

P: Cc1c(Cl)cccc1C(=O)N1CCC[C@H](c2nc(C3CCCCC3)no2)C1
Q: O=C(c1ccccc1)N1CCC[C@H](c2nc(-c3ccccc3)no2)C1
Which of the two items, P and Q , has the greater recorded pIC50? Response format: the label of the selected entry.
P

This collection of values is drawn from ChEMBL document CHEMBL2331386.
